Ref: ChEMBL document CHEMBL1201862

So I've got a bunch of compounds here, and I need their IC50 values.
SYSTEM_UNDER_TEST: UniProt:P11940
Sequence (P11940 whole entry): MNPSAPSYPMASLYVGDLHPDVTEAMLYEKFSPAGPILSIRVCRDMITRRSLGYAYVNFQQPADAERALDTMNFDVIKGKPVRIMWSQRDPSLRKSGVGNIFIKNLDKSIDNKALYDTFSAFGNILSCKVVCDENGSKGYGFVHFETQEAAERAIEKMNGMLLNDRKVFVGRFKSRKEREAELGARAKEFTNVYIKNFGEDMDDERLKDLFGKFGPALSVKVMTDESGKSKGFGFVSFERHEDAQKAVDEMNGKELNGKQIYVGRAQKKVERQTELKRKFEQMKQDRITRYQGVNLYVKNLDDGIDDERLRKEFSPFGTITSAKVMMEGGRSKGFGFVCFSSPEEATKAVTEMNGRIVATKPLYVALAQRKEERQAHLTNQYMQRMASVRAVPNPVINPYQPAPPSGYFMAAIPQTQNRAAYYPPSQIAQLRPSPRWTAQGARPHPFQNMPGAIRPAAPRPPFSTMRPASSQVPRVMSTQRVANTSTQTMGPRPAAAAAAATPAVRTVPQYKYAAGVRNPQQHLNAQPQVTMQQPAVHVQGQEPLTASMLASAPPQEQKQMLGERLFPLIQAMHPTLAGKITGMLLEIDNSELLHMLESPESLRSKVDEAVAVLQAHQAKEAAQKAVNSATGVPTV
ASSAY_SUMMARY: MLLE binding blockers, Cy5 peptide tracer – biochemical, fluorescence polarization, Cy5-PAM2 peptide, secondary, miRNA deadenylation inhibitor project, dose response (AID 602260)
Assay type: functional
TEST_CONTEXT: read-out: IC50_Mean
Activity calls are given as the source filed them. No rule for the calls is given here.

Input line: Look up IC50: CCN(CC)c1ccc(SS(=O)(=O)O)cc1
Output line: > 66 µM (inactive)

Input line: Look up IC50: Cc1cc2cc(CNC(=O)c3ccc(C)c([N+](=O)[O-])c3)ccc2[nH]1
Output line: > 66 µM (inactive)

Input line: Look up IC50: COc1ccc(CN2CC(=O)N3[C@H]4c5ccccc5OC[C@@H]4[C@H](c4ccccc4)[C@]3(C)C2=O)cc1
Output line: > 66 µM (inactive)

Input line: Look up IC50: CC1=CC(=O)C=CC1=Nc1ccc(N(C)C)cc1
Output line: 61.6 µM (inactive)
